Molecular target: Aspartate--tRNA(Asp/Asn) ligase (Mycobacterium tuberculosis (strain ATCC 25618 / H37Rv)); also: in the data most compounds retested in dose-response had high values
Test: Assay for Asp RNA synthetase-1 from Mycobacterium tuberculosis
Format: functional
Design: scale not given: direction of the effect not stated beside the values
Settings: 30 µM
Readout kind: Percent Effect (%)

{"Compound": "Cc1cnn(CC2CCCCN2C(=O)c2ccc3nnc(C)n3c2)c1 (configuration not stated)", "Readout kind": "Percent Effect", "Unit info": "%", "Test result": 10.3}
{"Compound": "CCc1ccc(C(=O)N2CCN(CCS(C)(=O)=O)CC2)o1", "Readout kind": "Percent Effect", "Unit info": "%", "Test result": -3.52}
{"Compound": "Cc1ccoc1C(=O)N1CCO[C@H]2[C@H](OCC3CCOCC3)CC[C@@H]21", "Readout kind": "Percent Effect", "Unit info": "%", "Test result": -4.72}
{"Compound": "CC(C)c1noc(CN2CCC3(CCCO3)CCC2=O)n1 (configuration not stated)", "Readout kind": "Percent Effect", "Unit info": "%", "Test result": -1.21}
{"Compound": "Cc1cc(C)n(CC(=O)N2CCC(NS(=O)(=O)c3ccccc3)CC2)n1", "Readout kind": "Percent Effect", "Unit info": "%", "Test result": 0.878}
{"Compound": "CC(NC(=O)NCc1ccoc1)c1ccc2c(c1)CCC(=O)N2 (configuration not stated)", "Readout kind": "Percent Effect", "Unit info": "%", "Test result": -9.2}
{"Compound": "Cc1ncsc1CCC(=O)NCc1cc2n(n1)CCN(C(=O)N(C)C)C2", "Readout kind": "Percent Effect", "Unit info": "%", "Test result": -4.32}
{"Compound": "Cc1ccc(NC2CCN(C(=O)c3ccsc3)CC2)nn1", "Readout kind": "Percent Effect", "Unit info": "%", "Test result": -2.79}
{"Compound": "O=C(CCNC(=O)C1CCCC1)NCc1cccnc1-n1cncn1", "Readout kind": "Percent Effect", "Unit info": "%", "Test result": 0.59}
{"Compound": "Cc1nc(C)n(CC2CCCCN2CC(=O)NC2CCOCC2)n1 (configuration not stated)", "Readout kind": "Percent Effect", "Unit info": "%", "Test result": -4.37}
{"Compound": "Cc1csc(NC(=O)CN(C)CC2CCCN2c2cccnn2)n1 (configuration not stated)", "Readout kind": "Percent Effect", "Unit info": "%", "Test result": 3.48}
{"Compound": "Cc1csc(CNC(=O)NCCc2ccc3c(c2)OCCO3)n1", "Readout kind": "Percent Effect", "Unit info": "%", "Test result": -5.39}

* * *

// reported Percent Effect for each item listed
Target: Shiga toxin 2 (Escherichia coli O157:H7) (UniProt P09385+P09386)
Experiment: E. coli 0.157:H7 Shiga Toxin SOP - stx2 screening assay
Format: functional
Set-up: scale not given: direction of the effect not stated beside the values
Conditions: 30 µM
Readout kind: Percent Effect (%)

{"Compound": "CCn1cnnc1CNC(=O)NC(C)c1cccs1 (centres undefined)", "Test result": -10.2}
{"Compound": "CCc1csc(C2CCCN(C(=O)C3=NN(CC)C(=O)CC3)C2)n1 (centres undefined)", "Test result": -21.6}
{"Compound": "COc1cc(S(=O)(=O)N2CCc3ccc(F)cc32)cc(C(=O)O)c1OC", "Test result": 2.68}
{"Compound": "O=C(CN(C1=NCCCC1)c1ccccc1)c1ccccc1", "Test result": -26.2}

* * *

Target: Aspartate--tRNA(Asp/Asn) ligase (Mycobacterium tuberculosis (strain ATCC 25618 / H37Rv)); also: in the data most compounds retested in dose-response had high values
Experiment: Assay for Asp RNA synthetase-1 from Mycobacterium tuberculosis
Assay type: functional
Set-up: scale not given: direction of the effect not stated beside the values
Details: 30 µM
Listed here are compounds together with their documented Percent Effect.

{"Compound": "Cc1nn(C)c(C)c1NC(=O)CN1CCCC1c1noc(C2CC2)n1 (configuration not stated)", "Unit info": "%", "Percent Effect": 5.58}
{"Compound": "CC(=O)NCCC(=O)NCc1cccnc1-n1cnc2ccccc21", "Unit info": "%", "Percent Effect": -1.62}
{"Compound": "O=C(Nc1ncn(CC(=O)N2CCCCCC2)n1)C1CCCO1 (configuration not stated)", "Unit info": "%", "Percent Effect": -0.233}
{"Compound": "Cc1cc(C(=O)N2Cc3ccccc3OC3(CCOCC3)C2)nc(N)n1", "Unit info": "%", "Percent Effect": 0.67}
{"Compound": "Cc1cn2nc(N3CCCC3Cn3nc(C)cc3C)sc2n1 (configuration not stated)", "Unit info": "%", "Percent Effect": -7.52}
{"Compound": "CN(C)C(=O)N1CCn2nc(CNC(=O)CCC(F)(F)F)cc2C1", "Unit info": "%", "Percent Effect": 2.12}
{"Compound": "CCC(=O)NCCc1cc(N2CCN(C(C)=O)CC2)nc(C2CC2)n1", "Unit info": "%", "Percent Effect": -0.432}

* * *

Molecular target: Aspartate--tRNA(Asp/Asn) ligase (Mycobacterium tuberculosis (strain ATCC 25618 / H37Rv)); also: in the data most compounds retested in dose-response had high values
Assay: Assay for Asp RNA synthetase-1 from Mycobacterium tuberculosis
Type: functional
Design: scale not given: direction of the effect not stated beside the values
Details: 30 µM
Quick list: Percent Effect per entry.

{"Compound": "O=C(c1cccs1)N1CCC(n2nc(-c3ccco3)ccc2=O)CC1", "Percent Effect, %": -0.968}
{"Compound": "CN(C)c1cc(C(=O)N2CCN(S(C)(=O)=O)CC2)ccn1", "Percent Effect, %": -0.122}
{"Compound": "Cc1ccc(CN2CCC3(CC2)C(=O)N(C)c2ccccc23)s1", "Percent Effect, %": 7.84}
{"Compound": "CN(C)S(=O)(=O)N1CCC[C@]2(C[C@@H](Oc3ccccn3)CO2)C1", "Percent Effect, %": 3.16}
{"Compound": "CCn1cc(CN2CCCN(C(=O)c3sccc3C#N)CC2)cn1", "Percent Effect, %": 0.257}
{"Compound": "CN(C(=O)NCc1ccncc1)C1CCN(c2ccccc2)C1=O (stereo unspecified)", "Percent Effect, %": -3.08}

* * *

Target: Shiga toxin 2 (Escherichia coli O157:H7) (UniProt P09385+P09386)
Assay: E. coli 0.157:H7 Shiga Toxin SOP - stx2 screening assay
Format: functional
Design: scale not given: direction of the effect not stated beside the values
Settings: 30 µM

{"Molecule": "CC(C(=O)Nc1ccc(N2CCCC2)nc1)n1cncn1 (configuration not stated)", "Percent Effect (%)": 11.3}
{"Molecule": "NC(=O)N1CCC2(CCN(Cc3cccc(F)c3)CC2)CC1", "Percent Effect (%)": -34.5}
{"Molecule": "Cc1nc(N2CCCC2)nc2c1CN(C(C)C)CC2", "Percent Effect (%)": -13.3}
{"Molecule": "Cc1cccc(N2CC[C@@H]3CN(Cc4csc(C)n4)CCO[C@@H]3C2)n1", "Percent Effect (%)": -42.6}
{"Molecule": "Cc1cc(C)n(C2CN(CC(O)COc3ccc(F)cc3)C2)n1 (configuration not stated)", "Percent Effect (%)": 19.1}
{"Molecule": "Cc1noc(C2CCCN(C(=O)c3ccc(Br)cc3F)C2)n1 (configuration not stated)", "Percent Effect (%)": 20.7}
{"Molecule": "Cc1nc(CN2CCCN(C(=O)C3(C#N)CCCCC3)CC2)cs1", "Percent Effect (%)": 11.8}
{"Molecule": "Cc1ccc(C(C)NC(=O)Nc2ccccc2CN2CCOCC2)o1 (configuration not stated)", "Percent Effect (%)": 17.3}
{"Molecule": "CC(C)c1nc2n(n1)CC(NCc1ncc(-c3ccccc3)o1)CC2 (configuration not stated)", "Percent Effect (%)": -9.35}
{"Molecule": "CCNc1cc2c(nn1)CCN(C(=O)CC1CCCCC1)C2", "Percent Effect (%)": -4.17}
{"Molecule": "CCc1nccn1C1CCCN(C(=O)Cc2n[nH]c3ccccc23)C1 (configuration not stated)", "Percent Effect (%)": 13.1}
{"Molecule": "O=C(Cn1cccn1)NCC1(c2ccccc2)CC1", "Percent Effect (%)": 16.1}
{"Molecule": "CN1CCN(c2ncccc2CNc2ncccc2C#N)CC1", "Percent Effect (%)": 2.01}
{"Molecule": "Cc1cnn(CC2CCCN2Cc2nc3ccccc3nc2C)c1 (configuration not stated)", "Percent Effect (%)": -1.37}
{"Molecule": "COc1ncccc1CNc1cc(N2CCCC2CO)ncn1 (configuration not stated)", "Percent Effect (%)": -26.2}
{"Molecule": "O=C(N1CCOCC1)[C@@]12CCO[C@@H]1CCN(Cc1ccccc1F)C2", "Percent Effect (%)": -21.7}
{"Molecule": "CN(C)C(=O)CN1C[C@@H]2CC[C@H](C1)N(C(=O)Cc1ccccc1Cl)C2", "Percent Effect (%)": -30.4}
{"Molecule": "O=C(CCNc1ncccn1)NCCc1ccn(-c2ccccc2)n1", "Percent Effect (%)": -46.2}
{"Molecule": "Cc1cc(NC(=O)NCC(C)N2CCc3ccccc32)no1 (configuration not stated)", "Percent Effect (%)": -1.83}
{"Molecule": "Cc1ccc(NCc2cncc3c2CCN(C(=O)C2CC=CC2)C3)nn1", "Percent Effect (%)": -38}
{"Molecule": "c1cnn(CCNCc2csc(-c3ccsc3)n2)c1", "Percent Effect (%)": -113}
{"Molecule": "O=C(c1cccc2[nH]ncc12)N1CCCC1c1noc(C2CC2)n1 (configuration not stated)", "Percent Effect (%)": 0.232}
{"Molecule": "O=C(O)[C@@H]1CN(C(=O)c2cc(C3CC3)n[nH]2)C[C@H]1c1cccc(F)c1", "Percent Effect (%)": -8.72}
{"Molecule": "CC[C@H]1NCCC[C@]12CCC(=O)N2Cc1ccncc1", "Percent Effect (%)": -6.09}
{"Molecule": "CCC(=O)N1CCC2(CC1)COc1ccccc1S(=O)(=O)N(C)C2", "Percent Effect (%)": 6.18}
{"Molecule": "Cn1cc(CN2CCC3(C2)CN(Cc2ccsc2)C3)cn1", "Percent Effect (%)": -10.4}
{"Molecule": "CCNS(=O)(=O)c1ccc(C)c(C(=O)N(C)Cc2ccco2)c1", "Percent Effect (%)": 0.315}
{"Molecule": "CCc1cnc(N2C[C@H]3C[C@H](C(=O)N(C)C)[C@@H](C2)O3)nc1", "Percent Effect (%)": -0.162}
{"Molecule": "N#Cc1ccccc1CN1CCCCC1Cn1cncn1 (configuration not stated)", "Percent Effect (%)": 25}
{"Molecule": "Cn1c(Cn2ccnc2)nnc1C1CCN(C(=O)C2(C)CC2)CC1", "Percent Effect (%)": -12.1}
{"Molecule": "Cc1ccc(S(=O)(=O)NC(=O)c2cccc3c2OCCO3)c(C)c1", "Percent Effect (%)": -9.09}
{"Molecule": "O=S1(=O)CCCN1Cc1coc(-c2cccs2)n1", "Percent Effect (%)": 0.853}
{"Molecule": "Cc1ccc(F)c(C(=O)N2CCN(S(C)(=O)=O)[C@@H](C)C2)c1", "Percent Effect (%)": -20.5}
{"Molecule": "CCc1nc(C2CCCN2C(=O)CCNS(C)(=O)=O)no1 (configuration not stated)", "Percent Effect (%)": -0.995}
{"Molecule": "Cn1cc(C2CCCN2Cc2csc(-c3ccsc3)n2)cn1 (configuration not stated)", "Percent Effect (%)": -5.27}
{"Molecule": "CCCOc1cc(C)ccc1NC(=O)NCCC(=O)N(C)C", "Percent Effect (%)": -4.42}
{"Molecule": "O=C(NCC1CCOC1)c1csc(-c2ccco2)n1 (configuration not stated)", "Percent Effect (%)": -11.7}
{"Molecule": "CC(=O)c1cc(CC(=O)NCc2ccc(CN(C)C)cc2)cs1", "Percent Effect (%)": -38.2}
{"Molecule": "O=C1CC2(CCCCN2C(=O)c2ccsc2)CN1CC1CC1 (configuration not stated)", "Percent Effect (%)": -8.01}
{"Molecule": "O=C(c1ccccn1)N1CCCC(c2nccn2Cc2ccncc2)C1 (configuration not stated)", "Percent Effect (%)": 4.41}
{"Molecule": "CCn1nc2c(cc1=O)CN(Cc1nc(CCOC)no1)CC2", "Percent Effect (%)": -7.6}
{"Molecule": "COc1nn(C)c2c1CCCN(C(=O)c1ccccc1)C2", "Percent Effect (%)": -9.13}
{"Molecule": "CC(C)CNC(=O)CN1C=Nc2ccccc2S1(=O)=O", "Percent Effect (%)": 32.2}
{"Molecule": "Cc1cc(C2CCCN2CC(=O)N(CCC#N)c2ccccc2F)on1 (configuration not stated)", "Percent Effect (%)": 0.491}
{"Molecule": "CS(=O)(=O)N1CCOCC2(CN(Cc3ccsc3)CCO2)C1 (configuration not stated)", "Percent Effect (%)": 7.57}
{"Molecule": "CN1C(=O)C(c2cccnc2)CC12CCN(C(=O)c1cccn1C)CC2 (configuration not stated)", "Percent Effect (%)": -12.3}
{"Molecule": "Cc1nccn1-c1cc(CNC(=O)CCNC(=O)C2CCCC2)ccn1", "Percent Effect (%)": 1.23}

Source: ChEMBL document CHEMBL3988442
